# protocolText: Stability (half-life) of retinol, free and encapsulated
# Type: physicochemical
# cond: liquid state, Dark
endpointName: half-life (min)
Please respond with the number in min and leave the unit unwritten.

Give its half-life value. Item: CC1=C(/C=C/C(C)=C/C=C/C(C)=C/CO)C(C)(C)CCC1
1250

====

As shown below, each of these molecules has a reported PI value.
# protocolText: Size, polydispersity index and zeta potential determination (Malvern Zetasizer)
# Type: physicochemical
# cond: compound encapsulated in zein micelles

CC1=C(/C=C/C(C)=C/C=C/C(C)=C/CO)C(C)(C)CCC1
0.27 ± 0.06
COc1cc(/C=C/C(=O)CC(=O)/C=C/c2ccc(O)c(OC)c2)ccc1O
0.25 ± 0.03
COc1cccc2c1C(=O)c1c(O)c3c(c(O)c1C2=O)C[C@@](O)(C(=O)CO)C[C@@H]3O[C@H]1C[C@H](N)[C@H](O)[C@H](C)O1
0.18 ± 0.06

Okay, now this molecule:
Give its PI value. Item: CCN(CC)c1ccc2nc3c4ccccc4c(=O)cc-3oc2c1
0.21 ± 0.08
